target: cloned human 5-HT1A receptors (Homo sapiens, UniProt P08908); construct: expressed in transfected cells; assay: 35S-GTPγS binding assay, 5-HT1A function; assay type: biochemical; details: antagonist potency, reversal of 8-OH-DPAT; read-out: 5-HT1A Function GTPγS IC50
ATTRIBUTE MEASURED: pIC50
Interpret pIC50 as the negative base-10 log of the concentration measured in mol/L.

Sample answers from the record:
In [3]: df
Out[3]:
                                   compound  endpoint_value
0  CCCN(CCCc1c[nH]c2ccc(OC)cc12)C1COc2c(F)ccc(C(N)=O)c2C1 (stereo not shown)            6.95
1  O=C(NC1CCCCC1)c1ccc(F)c2c1CC(N(CCCc1c[nH]c3ccc(F)cc13)C1CCC1)CO2 (stereo not shown)            5.71
2  CCCCN(CCCc1c[nH]c2ccc(F)cc12)C1COc2c(F)ccc(C(N)=O)c2C1 (stereo not shown)            5.49
3  COc1cccc2c(CCCNC3COc4c(F)ccc(C(N)=O)c4C3)c[nH]c12 (stereo not shown)            5.40
4  CCCN(CCCCc1c[nH]c2ccc(F)cc12)C1COc2c(F)ccc(C(=O)NC)c2C1 (stereo not shown)            6.52

So what does the record say about pIC50 for NC(=O)c1ccc(F)c2c1CC(N(CCC(=O)c1c[nH]c3ccc(F)cc13)C1CCC1)CO2 (stereo not shown) ?
5.86

Query: pIC50; subject: CCN(CCCCc1coc2ccccc12)C1COc2cccc(OC)c2C1 (stereo not shown)
5.93

---

Target: 5-HT1A receptor (Homo sapiens, UniProt P08908)
Sequence (P08908 1-422): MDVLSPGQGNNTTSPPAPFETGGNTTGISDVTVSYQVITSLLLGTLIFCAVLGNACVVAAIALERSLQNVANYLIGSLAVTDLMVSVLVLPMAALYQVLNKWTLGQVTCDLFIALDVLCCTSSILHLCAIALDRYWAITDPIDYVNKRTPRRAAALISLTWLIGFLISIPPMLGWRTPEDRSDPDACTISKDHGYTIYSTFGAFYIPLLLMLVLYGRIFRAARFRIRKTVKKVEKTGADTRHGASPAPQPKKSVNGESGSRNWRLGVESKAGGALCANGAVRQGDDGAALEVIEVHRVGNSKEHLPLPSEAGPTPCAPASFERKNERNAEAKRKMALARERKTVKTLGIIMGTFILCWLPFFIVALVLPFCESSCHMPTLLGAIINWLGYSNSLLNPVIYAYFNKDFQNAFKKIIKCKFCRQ
Test: 5-HT1A receptor affinity: displacement of [3H] 8-OH-DPAT
Assay type: binding
Design: expressed in transfected cells
Conditions: displacement of [3H] 8-OH-DPAT; CHO cells stably transfected with human 5-HT1A receptors; read-out: 5-HT1A Receptor Affinity Ki
ATTRIBUTE MEASURED: Ki

See these solved cases before continuing.
>>> print(df.to_string())
                                   molecule  endpoint_value
0  CN(C)C(=O)c1ccc(F)c2c1CC(N(CCCc1c[nH]c3ccc(F)cc13)C1CCC1)CO2 (stereo not drawn)          372 nM
1  NC(=O)c1cccc2c1CC(NCCCc1c[nH]c3ccc(F)cc13)CO2 (stereo not drawn)         65.1 nM
2  CC(CCc1c[nH]c2c(F)cc(F)cc12)N(CC1CC1)C1COc2c(F)ccc(C(N)=O)c2C1 (single isomer, unassigned) [Compound 154c]         24.8 nM
3  NC(=O)c1ccc(F)c2c1OCC(NCCCCc1c[nH]c3ccc(F)cc13)C2 (stereo not drawn)          280 nM
4  CCN(CCCc1c[nH]c2ccc(Cl)cc12)C1COc2c(F)ccc(C(N)=O)c2C1 (stereo not drawn)         6.04 nM
5  C[C@@H](CCN(C1CCC1)[C@@H]1COc2c(F)ccc(C(N)=O)c2C1)c1c[nH]c2ccc(F)cc12 [Compound 153b]          124 nM
6  COC(=O)c1ccc(F)c2c1CC(NCCCCc1c[nH]c3ccc(F)cc13)CO2 (stereo not drawn)         14.1 nM
7  CCN(CCCc1c[nH]c2ccc(F)cc12)C1COc2cccc(OC)c2C1 (stereo not drawn)         2.33 nM

Given the entry CC(CCc1c[nH]c2c(F)cc(F)cc12)N(CC1CC1)C1COc2c(F)ccc(C(N)=O)c2C1 (single isomer, unassigned) [Compound 154a] , report its measured Ki.
6.35 nM

Given C[C@H](CCN(C1CCC1)[C@H]1COc2c(F)ccc(C(N)=O)c2C1)c1c[nH]c2ccc(F)cc12 [Compound 152a] , state its recorded Ki.
20 nM

Fill in the blank: the reported Ki of CCCN(CCCCn1ccc2cc(F)ccc21)C1COc2c(F)ccc(C(N)=O)c2C1 (stereo not drawn) is ____.
6.54 nM

I would be grateful if you could share the reported Ki for NC(=O)c1ccc(F)c2c1C[C@@H](NCC1CCc3c([nH]c4ccc(F)cc34)C1)CO2 (single isomer, unassigned; (-)) [Compound 179b] .
24.2 nM

These measurements were taken from patent US20050032873A1.
